- assayNotes: AUC (0 to infinity) in Sprague-Dawley rat at 3 mg/kg,po by LC-MS/MS analysis
- Type: ADME, organism-based
- Design: dose 3 mg/kg, route po
- conditionSummary: in vivo
endpoint: AUC(0-inf) (µM·h)
Response body: numeric value in µM·h, unit text excluded.

Query string: Report AUC(0-inf) for COc1ccc(CNC(=O)c2sc3nnc(C)c(C)c3c2N)cc1F please.
Result string: 3.8

---

- assayNotes: Ratio of drug concentration in Sprague-Dawley rat brain to plasma at 1 to 10 mg/kg, po by LC-MS/MS analysis
- Assay type: ADME, organism-based
- conditionSummary: dose 1-10 mg/kg, read-out: BPR
endpoint: Kp
Give a plain numeric answer without units written out.

Query string: Quick one: Kp for COc1ccc(CNC(=O)c2sc3nnc(C)c(C)c3c2N)cc1F ?
Result string: 0.31

---

- studyTarget: CYP2B6 (Homo sapiens, UniProt P20813)
- Sequence (P20813 whole entry): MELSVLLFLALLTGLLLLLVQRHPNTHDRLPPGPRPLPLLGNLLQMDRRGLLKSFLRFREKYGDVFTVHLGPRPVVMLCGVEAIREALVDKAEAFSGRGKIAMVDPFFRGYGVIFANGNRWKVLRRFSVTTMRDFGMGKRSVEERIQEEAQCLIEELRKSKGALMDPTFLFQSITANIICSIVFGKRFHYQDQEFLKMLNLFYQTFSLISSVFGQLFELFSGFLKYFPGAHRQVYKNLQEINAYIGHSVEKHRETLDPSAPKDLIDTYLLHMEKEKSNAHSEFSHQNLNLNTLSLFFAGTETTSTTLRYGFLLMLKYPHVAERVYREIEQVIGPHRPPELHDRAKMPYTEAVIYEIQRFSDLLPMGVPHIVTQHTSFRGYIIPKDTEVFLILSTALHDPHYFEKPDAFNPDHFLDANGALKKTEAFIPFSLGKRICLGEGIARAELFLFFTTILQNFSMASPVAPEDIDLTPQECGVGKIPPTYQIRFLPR
- assayNotes: Activation of CYP2B6 in human hepatocyte using bupropion as substrate preincubated for 5 days followed by substrate addition and measured after 1 hr by LC-MS/MS analysis relative to control
- Assay type: ADME, cell-based
- conditionSummary: hepatocytes, probe bupropion, time 121 hrs
endpoint: Emax at 1 h

Query string: What Emax at 1 h value was documented for this compound, COc1ccc(CNC(=O)c2sc3nnc(C)c(C)c3c2N)cc1F ?
Result string: ≤ 1%
